IC50: recorded values
# Tested Target: PE-labeled human PD-L1-Ig binding to Jurkat cell line over-expressing human PD-1 (Jurkat-PD-1) (Homo sapiens)
# Construct: expressed in transfected cells; host or cells: Jurkat
# Sequence (Q15116 25-288): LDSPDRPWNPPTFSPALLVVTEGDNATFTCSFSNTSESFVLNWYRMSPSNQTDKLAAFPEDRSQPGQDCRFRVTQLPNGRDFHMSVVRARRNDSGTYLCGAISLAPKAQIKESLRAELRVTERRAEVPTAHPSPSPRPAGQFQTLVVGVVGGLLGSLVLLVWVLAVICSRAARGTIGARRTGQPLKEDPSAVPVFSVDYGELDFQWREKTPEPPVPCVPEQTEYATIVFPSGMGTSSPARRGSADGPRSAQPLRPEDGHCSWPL
# Assay Info: Jurkat-PD-1 Cell Binding High-Content Screening Assay (CBA): Method 1
# Assay Setup: Jurkat-hPD-1 cells, PE-labeled PD-L1-Ig 20 nM final; read-out: Jurkat HPDL1 PD1 IC50 (uM) (Method 1)
Bridge positions count the residues as written; N and C are the ends. Square brackets hold non-standard residues; d marks the D form. Peptide text beside a SMILES is read from it. Bip = N[C@@H](Cc1ccc(-c2ccccc2)cc1)C(=O)O; mTyr = N[C@@H](Cc1cccc(O)c1)C(=O)O; NMeA = CN[C@@H](C)C(=O)O; Dab = NCC[C@H](N)C(=O)O
// return numeric value only (unit: µM, not printed)

Compound	IC50 / µM
CC(C)C[C@@H]1NC(=O)[C@H](Cc2c[nH]c3ccccc23)NC(=O)[C@H](CC(=O)O)NC(=O)[C@H](Cc2ccc(O)cc2)NC(=O)[C@H](Cc2ccccc2)NC(=O)CSC[C@@H](C(=O)NCC(N)=O)NC(=O)[C@H](CO)NC(=O)[C@H](C(C)C)NC(=O)[C@H](CC(C)C)NC(=O)[C@H](CC(N)=O)NC(=O)[C@@H](CCC(N)=O)NC(=O)[C@H](C)N(C)C(=O)[C@H](C(C)C)NC(=O)[C@H](Cc2ccc(-c3ccccc3)cc2)NC1=O [Compound 1784] ({CH2CO}-FYDWL[Bip]V[NMeA][dQ]NLVSCG-NH2; thioether N-14)	0.09

Continue with the compound presented below.
Entry CC(C)C[C@@H]1NC(=O)[C@H](CCN)NC(=O)[C@@H](CC(C)C)NC(=O)[C@H](C)N(C)C(=O)[C@H](C(C)C)NC(=O)[C@H](Cc2ccc(-c3ccccc3)cc2)NC(=O)[C@H](C(C)C)NC(=O)[C@H](Cc2c[nH]c3ccccc23)NC(=O)[C@H](CC(=O)O)NC(=O)[C@H](Cc2cccc(O)c2)NC(=O)[C@H](CC(N)=O)NC(=O)CSC[C@@H](C(=O)N[C@@H](C)C(N)=O)NC(=O)[C@H]([C@@H](C)O)NC(=O)[C@H](C(C)C)NC1=O [Compound 1384] ({CH2CO}-N[mTyr]DWV[Bip]V[NMeA][dL][Dab]LVTCA-NH2; thioether N-14) — recorded IC50 = 0.02

###

# Tested Target: PE-labeled human PD-L1-Ig binding to Jurkat cell line over-expressing human PD-1 (Jurkat-PD-1) (Homo sapiens)
# Construct: expressed in transfected cells; host or cells: Jurkat
# Assay Info: Jurkat-PD-1 Cell Binding High-Content Screening Assay (CBA): Method 1
# Assay Setup: Jurkat-hPD-1 cells, PE-labeled PD-L1-Ig 20 nM final; read-out: Jurkat HPDL1 PD1 IC50 (uM) (Method 1)
Bridge positions count the residues as written; N and C are the ends. Square brackets hold non-standard residues; d marks the D form. Peptide text beside a SMILES is read from it. Bip = N[C@@H](Cc1ccc(-c2ccccc2)cc1)C(=O)O; Phe(2-Me) = Cc1ccccc1C[C@H](N)C(=O)O; NMeA = CN[C@@H](C)C(=O)O; Nle = CCCC[C@H](N)C(=O)O; Dab = NCC[C@H](N)C(=O)O; Dap = NC[C@H](N)C(=O)O
Property Label: IC50 (µM)
Only the number, expressed in µM, is required.

Molecule	IC50 [µM]
CC[C@H](C)[C@@H]1NC(=O)[C@H](Cc2ccc(-c3ccccc3)cc2)NC(=O)[C@H](C(C)C)NC(=O)[C@H](Cc2c[nH]c3ccccc23)NC(=O)[C@H](CC(=O)O)NC(=O)[C@H](Cc2ccc(O)cc2)NC(=O)[C@H](CN)NC(=O)CSC[C@@H](C(=O)N[C@@H](C)C(N)=O)NC(=O)[C@H]([C@@H](C)O)NC(=O)[C@H](C(C)C)NC(=O)[C@H](CC(C)C)NC(=O)[C@H](CCN)NC(=O)[C@@H](CC(C)C)NC(=O)[C@H](C)N(C)C1=O [Compound 1414] ({CH2CO}-[Dap]YDWV[Bip]I[NMeA][dL][Dab]LVTCA-NH2; thioether N-14)	0.1
Cc1ccccc1C[C@@H]1NC(=O)[C@H](Cc2ccccc2)NC(=O)CSC[C@@H](C(=O)N[C@@H](C)C(N)=O)NC(=O)[C@H](CO)NC(=O)[C@H](C(C)C)NC(=O)[C@H](CC(C)C)NC(=O)[C@H](CC(N)=O)NC(=O)[C@@H](C)NC(=O)[C@H](C)N(C)C(=O)[C@H](C(C)C)NC(=O)[C@H](Cc2ccc(-c3ccccc3)cc2)NC(=O)[C@H](CC(C)C)NC(=O)[C@H](Cc2c[nH]c3ccccc23)NC(=O)[C@H](CC(=O)O)NC1=O [Compound 1794] ({CH2CO}-F[Phe(2-Me)]DWL[Bip]V[NMeA][dA]NLVSCA-NH2; thioether N-14)	0.15

molecule CCCC[C@@H]1NC(=O)[C@H](CCCNC(=N)N)NC(=O)[C@@H](CC(C)C)NC(=O)[C@H](C)N(C)C(=O)[C@H](C(C)C)NC(=O)[C@H](Cc2ccc(-c3ccccc3)cc2)NC(=O)[C@H](C(C)C)NC(=O)[C@H](Cc2c[nH]c3ccccc23)NC(=O)[C@H](CC(=O)O)NC(=O)[C@H](Cc2ccc(O)cc2)NC(=O)[C@H](CC(N)=O)NC(=O)CSC[C@@H](C(=O)N[C@@H](C)C(N)=O)NC(=O)[C@H]([C@@H](C)O)NC(=O)[C@H](C(C)C)NC1=O [Compound 1293] ({CH2CO}-NYDWV[Bip]V[NMeA][dL]R[Nle]VTCA-NH2; thioether N-14) , IC50 observed: 0.07

So, CC[C@H](C)[C@@H]1NC(=O)[C@H](Cc2ccc(-c3ccccc3)cc2)NC(=O)[C@H](C(C)C)NC(=O)[C@H](Cc2c[nH]c3ccccc23)NC(=O)[C@H](CC(=O)O)NC(=O)[C@H](Cc2ccc(O)cc2)NC(=O)[C@H](CC(N)=O)NC(=O)CSC[C@@H](C(=O)N[C@@H](C)C(N)=O)NC(=O)[C@H]([C@@H](C)O)NC(=O)[C@H](C(C)C)NC(=O)[C@H](CC(C)C)NC(=O)[C@H](CCCNC(=N)N)NC(=O)[C@@H](CC(C)C)NC(=O)[C@H](C)N(C)C1=O [Compound 1490] ({CH2CO}-NYDWV[Bip]I[NMeA][dL]RLVTCA-NH2; thioether N-14) ? Its IC50 was 0.07

The values you see were collected from patent US20240409585A1.
